The reported numbers originate from ChEMBL document CHEMBL1201862.

# Tested on: DU-145
# experimental protocol: NCI tumour cell line growth inhibition, 48 h
Active and inactive are the calls of the source. Rule as the data show it: active = GI50 up to about 1.1 µM and inactive = higher.
Possible outcomes: 1.0 for active, 0.0 for inactive

>>> class("CC(=O)N(C)CCc1c[nH]c2ccccc12")
0.0
>>> class("C[C@]12CC[C@@H]3c4ccc(O)cc4CC[C@H]3[C@@H]1C/C(=C\\c1ccc(C#N)cc1)C2=O")
0.0
>>> class("C[N+](C)(C)[BH-](Br)C(O)O (stereo not drawn)")
0.0
>>> class("Cc1cnc2[nH]c(-c3cccc(Cl)c3)cc(=O)c2c1")
1.0
>>> class("O=C1OC(OCC#CCOC2OC(=O)C(Cl)=C2Cl)C(Cl)=C1Cl (stereo not drawn)")
0.0
>>> class("CSc1c(C(=O)Nc2ccc(C)cc2)c(N)n(N)c(=O)c1C#N")
0.0
>>> class("CC1(C)C2CCC1(C)C(OC(=O)/C=C/C(=O)OC1CC3CCC1(C)C3(C)C)C2 (stereo not drawn)")
0.0
>>> class("C=C1CC2OC2(C(=O)O[C@H]2CCC3[C@@H]4CCC5=CC(=O)CC[C@]5(C)C4CC[C@@]32C)C1=O (stereo partly drawn)")
0.0
>>> class("CN(CCCCN1CCCC1)CCCN(C)C(=O)Cc1ccc(Cl)c(Cl)c1")
0.0
>>> class("COc1ccc2nc3cc(Cl)ccc3c(NCCCNCCCNc3c4ccc(Cl)cc4nc4ccc(OC)cc34)c2c1")
1.0
>>> class("Cc1ccc(S(=O)(=O)Oc2nc3ccccc3nc2OS(=O)(=O)c2ccc(C)cc2)cc1")
0.0
>>> class("COc1ccc(NC/C=C/C(=C/COC(C)=O)OC(C)=O)cc1")
0.0
>>> class("BrCCC[P+](c1ccccc1)(c1ccccc1)c1ccccc1")
0.0
>>> class("c1csc(-c2cscc2-c2ccsc2)c1")
0.0
>>> class("CCCCOc1ccc(S(=O)(=O)N/C(N)=N/c2ccc(Cl)cc2)cc1")
0.0
>>> class("Cc1ccc2c3ccc4c(c3n(C)c2c1)C(=O)C=CC4=O")
0.0
>>> class("c1ccc2c(OCC3CO3)ccc(OCC3CO3)c2c1 (stereo not drawn)")
0.0
>>> class("NC(CCP(=O)(O)CCC1C=CC=CC1)C(=O)O (stereo not drawn)")
0.0
>>> class("O=C1CCC2(CC1CC[S+]([O-])c1ccccc1)OCCO2 (stereo not drawn)")
0.0
>>> class("CC(=O)SCCC(NC(=S)Nc1ccccc1)P(=O)(Oc1ccccc1)Oc1ccccc1 (stereo not drawn)")
0.0
>>> class("O=c1[nH]c(=O)n(COCCO)c2ccsc12")
0.0
>>> class("COC(=O)c1ccc(CCC2=CC(=O)C(Br)=CC2=O)cc1")
0.0
>>> class("O=C1CCc2cc3c(cc21)C(C(=O)O)CC3 (stereo not drawn)")
0.0

----------
What follows is a collection of GI50 values obtained with HCT-15.
measured parameter: GI50

>>> result("CC1(C)C2CCC1(C)C(OC(=O)/C=C/C(=O)OC1CC3CCC1(C)C3(C)C)C2 (stereo unspecified)")
"68.7 µM"
>>> result("O=C1/C=C(/c2ccc(O)cc2)[C@@H](OC2OC(CO)C(O)C(O)C2O)Cc2ccc(O)cc2O1.O=C1/C=C(/c2ccc(O)cc2)[C@H](O)Cc2ccc(O[C@@H]3OC(CO)C(O)C(O)C3O)cc2O1 (stereo partly specified)")
"> 100 µM"
>>> result("COc1ccccc1NS(=O)(=O)c1ccc2ncn(NS(=O)(=O)c3ccc(Cl)cc3)c(=O)c2c1")
"> 100 µM"
>>> result("COc1ccc2c(c1)C=C(C(C)(C)C)NS2(=O)=O")
"> 100 µM"
>>> result("O=C1Nc2ccccc2C12CCCC2")
"> 100 µM"
>>> result("O=C1CCCC(=O)N1n1c(Cc2ccc(Cl)cc2)n[nH]c1=O")
"> 100 µM"
>>> result("C[N+](C)(C)CC1CCCC(C[N+](C)(C)C)C1=O (stereo unspecified)")
"0.308 µM"
>>> result("Cc1cccc2nc3cccc(C(=O)NCCN(C)C)c3nc12")
"0.442 µM"
>>> result("CSC12c3cc(C)n(-c4ccc([N+](=O)[O-])cc4)c3CC(C)(C)CN1C(=O)C2Oc1ccccc1 (stereo unspecified)")
"> 100 µM"
>>> result("COC(=O)c1ccc(CCC2=CC(=O)C(Br)=CC2=O)cc1")
"14.5 µM"
>>> result("O=Cc1ccc(Oc2c3ccccc3nc3ccccc23)cc1")
"4.16 µM"
>>> result("COC(=O)C1=C(c2ccc3c(c2)OCO3)O[C@H](c2ccc3c(c2)OCO3)[C@H]1COC(C)=O")
"53.1 µM"
>>> result("C=C(CN(C)C)C(=O)c1ccc(Oc2ccccc2)cc1")
"3.68 µM"
>>> result("C=C[C@]1(C)CC(=O)C(C(C)C=O)[C@]12C(=O)Oc1cccc(C)c1C2=O (stereo partly specified)")
"14.9 µM"
>>> result("O=C(Nc1ccccc1F)c1c(O)nc2sccn2c1=O")
"> 10 µM"
>>> result("CCOC1=NC(C(F)(F)F)(C(F)(F)F)N=C(N2CCCCC2)O1")
"> 100 µM"
>>> result("Cc1ccc2[nH]c3[nH]c(=O)[nH]c(=O)c3c2c1")
"> 100 µM"
>>> result("CCOC(=O)c1ccc(NCC#CCN2CCOCC2)cc1")
"62.4 µM"
>>> result("Cc1cnc2[nH]c(-c3cccc(Cl)c3)cc(=O)c2c1")
"0.117 µM"
>>> result("CC1(C)CN=C(Nc2ccc(F)c(F)c2)S1")
"> 100 µM"
>>> result("CCCc1c(C(=O)OCC)[nH]c(C(=O)CCC(=O)c2[nH]c(C(=O)OCC)c(CCC)c2C(=O)OCC)c1C(=O)OCC")
"> 100 µM"
>>> result("CCOC(=O)CN1C(=O)c2ccc(NC(=O)C(=O)O)cc2S1(=O)=O")
"> 100 µM"
>>> result("COc1c2c(cc3nc4ccccc4nc13)CC[C@H](NC(C)=O)c1cc(=O)c(SC)ccc1-2")
"2.84 µM"
>>> result("O=C1c2cccc3cc4ccccc4c(c23)C(=O)N1CCNCCNCCNCCN1C(=O)c2cccc3cc4ccccc4c(c23)C1=O")
"< 0.01 µM"
>>> result("O=C1C=CC(=O)c2c1c1c(c3c2C2c4ccccc4C3c3ccccc32)C2c3ccccc3C1c1ccccc12")
"1.54 µM"
>>> result("CC(=O)Oc1cc2c(cc1OC(C)=O)OCC(c1ccccc1)C2 (stereo unspecified)")
"13 µM"
>>> result("CN(C)Cc1cc(C(=O)/C=C/c2ccc(/C=C/C(=O)c3cc(CN(C)C)c(O)c(CN(C)C)c3)cc2)cc(CN(C)C)c1O")
"29.6 µM"
>>> result("COc1ccc(Nc2nc3cc(C(F)(F)F)ccc3nc2C(=O)O)cc1")
"16.6 µM"
>>> result("O=C(/C=C1\\N=C(c2ccccc2)N(c2ccc3c(c2)Sc2cc(N4C(=O)/C(=C/C(=O)/C=C/c5ccccc5)N=C4c4ccccc4)ccc2N3)C1=O)/C=C/c1ccccc1")
"> 100 µM"
>>> result("CCCc1cn2c(/C=N/NC(=N)N)c(-c3cccc([N+](=O)[O-])c3)nc2s1")
"1.84 µM"
>>> result("Cn1c(=O)[nH]c2nncnc2c1=O")
"299 µM"
>>> result("COc1cc(Nc2nc3cc(C(F)(F)F)ccc3nc2C(=O)O)cc(OC)c1OC")
"39.6 µM"
>>> result("CCCCOc1ccc(S(=O)(=O)N/C(N)=N/c2ccc(Cl)cc2)cc1")
"14 µM"
>>> result("CC(=O)OC1CCn2nnc(COC(=O)NC(C)C)c21 (stereo unspecified)")
"> 100 µM"
>>> result("C=CC1(CBr)CCC(C(C)(C)Br)O1 (stereo unspecified)")
"6.64 µM"
>>> result("COc1ccccc1C1(C)SCc2nc3ccccc3n21 (stereo unspecified)")
"> 10 µM"
>>> result("O=C(Nn1cnn2c(=O)c3ccccc3nc2c1=O)c1ccccc1")
"> 100 µM"
>>> result("CC[P+](C)(C)CC")
"> 100 µM"
>>> result("O=C(O)[C@@H](NS(=O)(=O)c1ccc([N+](=O)[O-])cc1)c1ccccc1")
"> 100 µM"
>>> result("COc1ccc(/C=C2\\CCC(CNc3ccc(Br)cc3)C2=O)cc1 (stereo unspecified)")
"8.45 µM"
>>> result("CCN(CC)Cc1cc(Nc2c3ccccc3nc3c4ccccc4n(C)c23)cc(CN(CC)CC)c1O")
"4.1 µM"
